Test system: 786-0 renal
Experiment: NCI-60 one-dose screen, 48 h
Conditions: 10 µM unless noted
This is part of a sample that, as a whole, favours compounds with a hit. Of some 83,000 tested, about 20% had one in any assay. Active and inactive are the calls of the source. The calls were made as follows: active = growth percent below 10; inactive = the rest.
Outcomes: t (active), f (inactive)

compound.smiles: CC(C)c1ccc(NC(=O)Cc2ccc(Nc3ncnc4cc(-c5cnn(CCN(C)C)c5)ccc34)cc2)cc1
discrete.label: t

compound.smiles: N=C(N)c1ccc(-c2ccc(-c3ccc(Cl)c(Cl)c3)o2)nc1
discrete.label: t

compound.smiles: CCOC(=O)c1sc(-c2ccc(OS(=O)(=O)c3ccc(C(C)(C)C)cc3)c(C=O)c2)nc1C
discrete.label: f

compound.smiles: CCCCNC(=O)c1cc(NCc2cc(O)ccc2O)ccc1O
discrete.label: f

compound.smiles: Nc1nc(Nc2ccc(Cl)cc2)nn1S(=O)(=O)c1ccc(-c2ccc(F)cc2)cc1
discrete.label: f

compound.smiles: COc1ccc(N=c2nc3sc4cc(Cl)ccc4n3c(N)c2C#N)cc1
discrete.label: f

compound.smiles: CCCCN1CCN(c2ccc3nc(-c4ccc5nc(-c6ccc(OCC)c(OCC)c6)[nH]c5c4)[nH]c3c2)CC1
discrete.label: t

compound.smiles: CCCCCOC(=O)c1cccc(NC(=O)CN(CC)CC)c1
discrete.label: f

compound.smiles: CCNCCNc1cc(-c2ccc(C(=O)OC)cc2)c(C#N)c2nc3ccccc3n12
discrete.label: f

compound.smiles: CC(=O)c1ccc2c(c1)CCN2
discrete.label: f

* * *

Test system: SF-268 CNS
Assay: NCI-60 one-dose screen, 48 h (100 = growth as untreated, 0 = no growth, -100 = all killed)
Details: 10 µM unless noted
This is part of a sample that, as a whole, favours compounds with a hit. Of some 83,000 tested, about 20% had one in any assay.
Catalogue of compounds with associated growth

compound: CCCN1CCN(c2ccc3nc(-c4ccc5nc(-c6ccc(OCC)c(OCC)c6)[nH]c5c4)[nH]c3c2)CC1
growth, %: 15.8

compound: O=[N+]([O-])c1ccc(-c2cc3c(Nc4ccc(Cl)c(C(F)(F)F)c4)ncnc3s2)cc1
growth, %: 24.3

compound: C=C1c2c(C)nn(-c3ccc(S(N)(=O)=O)cc3)c2N(C)C23CC1C1(C)c4c(C)nn(-c5ccc(S(N)(=O)=O)cc5)c4N(C)C(C)(CC12)C3 (centres undefined)
growth, %: 42.2

compound: N#C/C=C(\c1ccc([N+](=O)[O-])cc1)n1nnc2cc(Cl)c(Cl)cc21
growth, %: 20.3

* * *

Tested on: OVCAR-5 ovarian
Assay: NCI-60 one-dose screen, 48 h (100 = growth as untreated, 0 = no growth, -100 = all killed)
Conditions: 10 µM unless noted
The panel holds about 83,000 compounds, 20% with a hit somewhere; the sample as a whole holds those more often. The source made the active and inactive calls. How the source made its calls: active means growth percent below 10; inactive means the rest.
Catalogue of compounds with associated growth

compound: CCn1c(Sc2nnc(Nc3ccccc3)s2)nc2c1c(=O)n(C)c(=O)n2C
assayed.system: OVCAR-5 ovarian
growth: 77.4% (inactive)
//
compound: Cc1cc(-c2ccccc2)cc(SC#N)[n+]1[O-]
assayed.system: OVCAR-5 ovarian
growth: 75.4% (inactive)
//
compound: COc1cc2oc3cc(C)oc(=O)c3c2cc1OC
assayed.system: OVCAR-5 ovarian
growth: 83.1% (inactive)
//
compound: CC(=O)Nc1nccs1
assayed.system: OVCAR-5 ovarian
growth: 84.3% (inactive)
//
compound: CC1(C)N=C(N)N=C(N)N1c1cccc(CN)c1
assayed.system: OVCAR-5 ovarian
growth: 89.2% (inactive)
//
compound: COc1ccc(O)c(-c2cc(-c3ccccc3)c(C#N)c(=O)[nH]2)c1
assayed.system: OVCAR-5 ovarian
growth: 124% (inactive)
//
compound: NC(=O)CC1(O)C=C(Br)C(=O)C(Br)=C1
assayed.system: OVCAR-5 ovarian
growth: 70.2% (inactive)
//
compound: CC(=O)c1cc2c(o1)C(=O)c1ccccc1C2=O
assayed.system: OVCAR-5 ovarian
growth: -86.1% (active)
//
compound: Nc1nc(Nc2ccc(Cl)cc2)nn1S(=O)(=O)c1ccc(-c2ccc(F)cc2)cc1
assayed.system: OVCAR-5 ovarian
growth: 85.7% (inactive)
//
compound: CCC(=O)OC1=C(C)SC2=NC(c3ccc(Cl)c(Cl)c3)=CC(c3cc(OC)c(OC)c(OC)c3)N21 (stereo unspecified)
assayed.system: OVCAR-5 ovarian
growth: 102% (inactive)
//
compound: Cc1c(C(N)=O)sc2nc(C)n(/N=c3\scc(-c4ccccc4)n3Cc3ccccc3)c(=O)c12
assayed.system: OVCAR-5 ovarian
growth: 47.9% (inactive)
//
compound: N=C(N)c1ccc(-c2ccc(-c3ccc(Cl)c(Cl)c3)o2)nc1
assayed.system: OVCAR-5 ovarian
growth: 39% (inactive)
//
compound: CN1CCN(CCCOc2ccc3nc(Nc4cc(Cl)cc(Cl)c4)ccc3c2)CC1
assayed.system: OVCAR-5 ovarian
growth: -57.4% (active)
//
compound: COc1ccc(NC(=O)c2cccc(-c3cc(=O)c4c(O)c(OC)c(OC)cc4o3)c2)cc1
assayed.system: OVCAR-5 ovarian
growth: 97.5% (inactive)
//
compound: CN(C)CCn1cc(-c2ccc3c(Nc4ccc(CC(=O)Nc5cccc(F)c5)cc4)ncnc3c2)cn1
assayed.system: OVCAR-5 ovarian
growth: -91.8% [30 µM] (active)
//
compound: Cc1ccc(/C=C(\C#N)n2nnc3cc(Cl)c(Cl)cc32)cc1
assayed.system: OVCAR-5 ovarian
growth: 13.3% (inactive)
//
compound: Cc1c(C)c2c(c(C)c1NC(=O)/C=C\C(=O)O)CCC(C)(CCCC(C)CCCC(C)CCCC(C)C)O2 (stereo unspecified)
assayed.system: OVCAR-5 ovarian
growth: 87.6% (inactive)
//
compound: CNC(=O)c1c(NC(=O)c2ccc(C(C)(C)C)cc2)sc2c1CCC(=O)C2
assayed.system: OVCAR-5 ovarian
growth: 9.12% (active)
//
compound: O=C(NCCOCCOCCNc1cccc2c1C(=O)N(C1CCCNC1=O)C2=O)c1cc2c(o1)C(=O)c1ccccc1C2=O (stereo unspecified)
assayed.system: OVCAR-5 ovarian
growth: -84.5% (active)
//
compound: COc1ccc(-n2ncn(CCCCCCn3cnn(-c4ccc(OC)cc4)c3=O)c2=O)cc1
assayed.system: OVCAR-5 ovarian
growth: 101% (inactive)
//
compound: C=C1c2c(C)nn(-c3ccc(S(N)(=O)=O)cc3)c2N(C)C23CC1C1(C)c4c(C)nn(-c5ccc(S(N)(=O)=O)cc5)c4N(C)C(C)(CC12)C3 (stereo unspecified)
assayed.system: OVCAR-5 ovarian
growth: 64% (inactive)

* * *

Test system: RPMI-8226 leukemia
Test: NCI-60 one-dose screen, 48 h
Settings: 10 µM unless noted
About 83,000 compounds went through this panel and 20% of them were active in at least one assay; those are over-represented in the sample as a whole. The source made the active and inactive calls. How the source made its calls: active means growth percent below 10; inactive means the rest.
Outcomes: 1.0 for active, 0.0 for inactive

molecule: CC(C)CCC[C@@H](C)[C@H]1CCC2C3=CCn4c(=O)ccc(=O)n4C3CC[C@@]21C (stereo partly specified)
assayed.system: RPMI-8226 leukemia
discrete.label: 1.0

molecule: C=C(C=O)C1CCC2(C(=O)O)CCC3(C)C(CCC4C5(C)CCC(O)C(C)(C)C5CCC43C)C12 (stereo unspecified)
assayed.system: RPMI-8226 leukemia
discrete.label: 1.0

molecule: O=C1NC(=S)S/C1=C\N1N=C(c2ccc(Cl)cc2)CC1c1ccc(F)cc1 (stereo unspecified)
assayed.system: RPMI-8226 leukemia
discrete.label: 0.0

molecule: N#Cc1c(NC(=O)c2ccccc2I)sc2c1CCCC2
assayed.system: RPMI-8226 leukemia
discrete.label: 0.0

molecule: COC1(CC[C@@H](C)COC2OC(CO)C(O)C(O)C2O)O[C@H]2C[C@H]3[C@@H]4CC=C5C[C@@H](OC6OC(CO)C(OC7OC(C)C(O)C(O)C7O)C(O)C6OC6OC(C)C(O)C(O)C6O)CC[C@]5(C)[C@H]4CC[C@]3(C)[C@H]2[C@@H]1C (stereo partly specified)
assayed.system: RPMI-8226 leukemia
discrete.label: 1.0

molecule: Cc1ccccc1NC(=O)CN(C)C
assayed.system: RPMI-8226 leukemia
discrete.label: 0.0

molecule: COc1ccc(-c2cncnc2N)cc1OC
assayed.system: RPMI-8226 leukemia
discrete.label: 0.0

molecule: O=C1C2=C(CCN(Cc3ccccc3)C2)N2CCN=C2N1Cc1ccc(C(F)(F)F)cc1
assayed.system: RPMI-8226 leukemia
discrete.label: 0.0

molecule: COc1ccccc1NC(=O)Nc1ccc(-c2nc3ccccc3o2)cc1
assayed.system: RPMI-8226 leukemia
discrete.label: 0.0

molecule: N#Cc1c(-c2ccc(C(F)(F)F)cc2)cc(N2CC(O)C2)n2c1nc1ccccc12
assayed.system: RPMI-8226 leukemia
discrete.label: 0.0

molecule: C/C(Cc1ccc(Cl)cc1)=C(/c1ccc(Cl)cc1)c1ccc(OCCN(C)C)cc1
assayed.system: RPMI-8226 leukemia
discrete.label: 1.0

molecule: CCCCCCCCN(CCCCCCCC)C(=N)c1ccnc2ccccc12
assayed.system: RPMI-8226 leukemia
discrete.label: 1.0

molecule: NC(=S)c1csc(CCNC(=O)c2ccccc2)n1
assayed.system: RPMI-8226 leukemia
discrete.label: 0.0

molecule: COc1cccc(CCC2CCCN(c3cc(C)nc(N)n3)C2)c1 (stereo unspecified)
assayed.system: RPMI-8226 leukemia
discrete.label: 0.0

molecule: COc1cc2c(O)n(CCCn3ccnc3)c3c4cnc5cccc(c(=O)c3c2cc1OC)c54
assayed.system: RPMI-8226 leukemia
discrete.label: 0.0

molecule: COc1cccc(-c2nc3sccn3c2-c2ccnc(NCCNS(=O)(=O)c3c(Cl)cccc3Cl)c2)c1
assayed.system: RPMI-8226 leukemia
discrete.label: 0.0

molecule: O=C1CSC(c2ccccc2)N1c1ccccc1 (stereo unspecified)
assayed.system: RPMI-8226 leukemia
discrete.label: 0.0

molecule: CC(C)n1nc(C#Cc2cccc(O)c2)c2c(N)ncnc21
assayed.system: RPMI-8226 leukemia
discrete.label: 1.0

molecule: CCCCCCNc1cc(C)nc2ccc(OC)cc12
assayed.system: RPMI-8226 leukemia
discrete.label: 0.0

molecule: NC(=O)c1c(NC(=O)c2ccccn2)sc2c1CCC(=O)C2
assayed.system: RPMI-8226 leukemia
discrete.label: 1.0

molecule: COc1ccc(C(=O)/C=C/c2cc3c(c(OC)c2)OCC(=O)N3)cc1
assayed.system: RPMI-8226 leukemia
discrete.label: 1.0
